For each entry below, report its inhibition value.
# assayed-target: 72 kDa type IV collagenase (Homo sapiens) (UniProt P08253)
# Sequence (P08253 110-660 limits assumed): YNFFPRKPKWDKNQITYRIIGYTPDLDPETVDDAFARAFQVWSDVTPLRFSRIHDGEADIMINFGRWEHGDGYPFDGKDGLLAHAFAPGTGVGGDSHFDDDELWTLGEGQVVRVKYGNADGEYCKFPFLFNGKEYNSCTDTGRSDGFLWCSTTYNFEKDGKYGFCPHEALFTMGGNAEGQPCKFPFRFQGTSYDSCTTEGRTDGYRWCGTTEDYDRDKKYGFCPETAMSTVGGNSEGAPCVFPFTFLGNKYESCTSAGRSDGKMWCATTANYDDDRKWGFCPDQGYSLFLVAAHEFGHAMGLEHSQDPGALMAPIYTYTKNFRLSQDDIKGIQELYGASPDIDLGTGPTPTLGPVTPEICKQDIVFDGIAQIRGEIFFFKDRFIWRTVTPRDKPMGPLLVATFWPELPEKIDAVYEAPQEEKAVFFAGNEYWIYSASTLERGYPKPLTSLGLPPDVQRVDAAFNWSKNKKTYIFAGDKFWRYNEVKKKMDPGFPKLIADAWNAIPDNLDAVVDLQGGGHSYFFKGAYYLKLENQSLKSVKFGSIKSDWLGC
# protocol-text: Inhibition of MMP-2 (matrix metalloprotease) at 10 uM
One number for each entry, in %.

These recorded examples may help you get a feel for the data.
smiles-representation: CCCCCCNC(=O)[C@H](CCCCN)NC(=O)[C@H](CCCCC)CN(O)C=O
unit-of-measure: %
inhibition: 98

smiles-representation: CC(C)(C)[C@@H]1NC(=O)[C@@H](CN(O)C=O)CCCCCCCCCCCCCCNC1=O
unit-of-measure: %
inhibition: 0

smiles-representation: CC(C)(C)[C@@H]1NC(=O)[C@@H](CN(O)C=O)CCCCCCCCNC1=O
unit-of-measure: %
inhibition: 15

smiles-representation: NCCCC[C@@H]1NC(=O)[C@@H](CN(O)C=O)CCCCCCCCCCCCCCNC1=O
unit-of-measure: %
inhibition: 15

smiles-representation: CC(C)(C)[C@@H]1NC(=O)[C@@H](CN(O)C=O)CCCCCCCCCNC1=O
unit-of-measure: %
inhibition: 8

smiles-representation: CC(=O)NCCCC[C@@H]1NC(=O)[C@@H](CN(O)C=O)CCCCCCCCCNC1=O
unit-of-measure: %
inhibition: 20

[ask] GET inhibition | system: 72 kDa type IV collagenase (Homo sapiens) (UniProt P08253) | item: CCCC[C@H](CN(O)C=O)C(=O)N[C@@H](CCCCN)C(=O)Nc1ccccc1
[reply] 55
